Numbers sourced from patent US11952346B2.

Molecular target: human MRGPRX2 (Homo sapiens, UniProt Q96LB1)
Construct: expressed in transfected cells
Sequence (Q96LB1 whole entry): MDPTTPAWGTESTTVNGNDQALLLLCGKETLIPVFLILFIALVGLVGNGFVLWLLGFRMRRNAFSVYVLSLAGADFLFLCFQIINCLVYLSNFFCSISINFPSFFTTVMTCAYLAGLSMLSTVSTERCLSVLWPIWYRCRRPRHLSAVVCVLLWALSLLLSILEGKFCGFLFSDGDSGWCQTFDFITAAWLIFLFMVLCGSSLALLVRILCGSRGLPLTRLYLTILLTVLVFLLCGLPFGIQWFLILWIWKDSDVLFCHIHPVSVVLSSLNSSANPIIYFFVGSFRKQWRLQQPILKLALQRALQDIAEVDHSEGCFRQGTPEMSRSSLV
Assay: MRGPRX2 antagonist activity, IP-One HTRF assay in CHO cells expressing human MRGPRX2 versus Cortistatin-14
Type: cell-based
Conditions: CHO cells stably expressing human MRGPRX2; versus 0.3 uM Cortistatin-14 agonist; IP-1 HTRF readout; read-out: MRGPR2 Antagonist Activity
Endpoint name: IC50

N#Cc1ccc(N[C@H]2CC[C@@H](NC(=O)c3ccc4cn[nH]c4c3)CC2)cc1C(F)(F)F; < 100 nM
O=C(N[C@H]1CC[C@@H](Nc2cc(C(F)(F)F)nc(C(F)(F)F)c2)CC1)c1ccc(F)cc1; 100 to 500 nM
CN1CCCc2ccc(C(=O)N[C@H]3CC[C@@H](Nc4cc(C(F)(F)F)nc(C(F)(F)F)c4)CC3)cc21; 1000 to 2500 nM

Exercise: Quick check: IC50 of N#Cc1ccc(C(=O)N[C@H]2CC[C@@H](Nc3cc(C(F)(F)F)nc(C(F)(F)F)c3)CC2)cc1 ?
Solution: > 2500 nM

Exercise: Quick check: IC50 of O=C(N[C@H]1CC[C@@H](Nc2cc(C(F)(F)F)cc(C(F)(F)F)c2)CC1)c1ccc(F)cc1 ?
Solution: 1000 to 2500 nM

Exercise: Quick check: IC50 of CN(C)c1cccc(C(=O)N[C@H]2CC[C@@H](Nc3cc(C(F)(F)F)nc(C(F)(F)F)c3)CC2)c1 ?
Solution: 100 to 500 nM

Exercise: Quick check: IC50 of N#Cc1cccc(C(=O)N[C@H]2CC[C@@H](Nc3cc(C(F)(F)F)nc(C(F)(F)F)c3)CC2)c1 ?
Solution: 1000 to 2500 nM
